targetUnderTest: MAT2A (Homo sapiens (Human))
Sequence (P31153 whole entry): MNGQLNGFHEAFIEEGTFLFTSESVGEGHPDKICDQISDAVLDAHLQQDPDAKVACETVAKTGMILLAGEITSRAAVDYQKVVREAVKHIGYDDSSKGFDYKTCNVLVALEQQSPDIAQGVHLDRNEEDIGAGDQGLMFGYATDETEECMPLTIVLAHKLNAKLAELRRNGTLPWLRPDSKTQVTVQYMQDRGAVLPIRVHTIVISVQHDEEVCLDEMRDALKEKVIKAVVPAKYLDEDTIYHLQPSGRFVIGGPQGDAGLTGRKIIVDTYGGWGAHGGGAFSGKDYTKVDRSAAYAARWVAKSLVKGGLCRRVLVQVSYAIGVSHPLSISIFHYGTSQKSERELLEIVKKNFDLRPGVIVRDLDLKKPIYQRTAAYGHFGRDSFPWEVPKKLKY
pIC50: −log10 of the molar value.
measuredEndpoint: pIC50

These recorded examples may help you get a feel for the data.
[
  {
    "substanceSmiles": "Cn1cc2cc(-n3c(=O)c(-c4ccc(C(F)(F)F)nc4)c(NCC4CC4)c4cn[nH]c43)ccc2n1",
    "targetUnderTest": "MAT2A (Homo sapiens (Human))",
    "pIC50": 7.76
  },
  {
    "substanceSmiles": "Cn1cc2cc(-n3c(=O)c(-c4ccc(OC(F)F)cc4)c(OCC(F)(F)F)c4cn[nH]c43)ccc2n1",
    "targetUnderTest": "MAT2A (Homo sapiens (Human))",
    "pIC50": 7.77
  },
  {
    "substanceSmiles": "CCOc1c(-c2ccc(OC(F)F)cc2)c(=O)n(-c2ccc3nn(C)cc3c2)c2c1cnn2C",
    "targetUnderTest": "MAT2A (Homo sapiens (Human))",
    "pIC50": 6.92
  }
]

I: CCOc1c(-c2ccc(Cl)cc2)c(=O)n(-c2ccc3ncn(C)c3c2)c2[nH]ncc12
II: CCOc1c(-c2ccc(Cl)cc2)c(=O)n(-c2ccc3nnn(C)c3c2)c2[nH]ncc12
III: CNc1c(-c2ccc(OC)cc2)c(=O)n(-c2ccc3nn(C)cc3c2)c2[nH]ncc12
QUERY: Your job: order these 3 records by pIC50, ascending. Thanks in advance for listing the labels in the requested order.
RESULT: III, I, II
(III: 7.21, I: 7.83, II: 8.07)
